These measurements were taken from ChEMBL document CHEMBL5325494.

biological target: Glycogen synthase kinase-3 beta (Homo sapiens); assay: Inhibition of GSK-3beta (unknown origin) incubated for 1 hr by HTRF assay
quantity.name: pIC50
Friendly reminder that pIC50 comes from taking -log10 of the concentration in mol/L.

# lookup: pIC50 of `COCCN1CCC(CNC(=O)c2ncc3ccc(-c4cncc(OC(C)C)c4)cn23)CC1`
8.05

---

molecular target: Glycogen synthase kinase-3 beta (Homo sapiens, UniProt P49841); assay: Inhibition of human wildtype full length GSK-3beta
Sequence (P49841 whole entry): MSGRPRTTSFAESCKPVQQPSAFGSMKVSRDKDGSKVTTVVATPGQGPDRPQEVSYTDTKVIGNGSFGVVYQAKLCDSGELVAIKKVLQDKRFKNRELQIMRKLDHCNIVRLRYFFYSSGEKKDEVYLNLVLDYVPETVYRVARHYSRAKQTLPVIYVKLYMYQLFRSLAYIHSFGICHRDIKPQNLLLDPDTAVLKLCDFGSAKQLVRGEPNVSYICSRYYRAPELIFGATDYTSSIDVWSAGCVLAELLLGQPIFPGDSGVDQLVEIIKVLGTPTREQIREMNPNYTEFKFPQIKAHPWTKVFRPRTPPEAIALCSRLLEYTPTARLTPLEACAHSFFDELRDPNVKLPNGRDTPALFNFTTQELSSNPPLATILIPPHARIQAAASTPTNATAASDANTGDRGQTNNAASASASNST
quantity.name: pIC50
// pIC50 here means minus log10 of the molar concentration (mol/L)

Entry under review: `COc1ccccc1-c1c2c(nc3[nH]nc(C)c13)CC(C)(C)CC2=O` . Reported pIC50?
7.27

---

biological target: UniProt:P49841; assay: Inhibition of full length GST-tagged human recombinant GSK-3beta (1 to 420 residues) expressed in Escherichia coli
quantity.name: pIC50
# log scale: pIC50 equals minus log10 of the concentration in mol/L

Look up pIC50: `Nc1ncc(-c2ccc(S(=O)(=O)N3C=COCC3)cc2)nc1C(=O)Nc1cccnc1`
8.00

---

target: Glycogen synthase kinase-3 beta (Homo sapiens, UniProt P49841); experiment: Inhibition of human GSK-3beta
quantity.name: IC50 (nM)
Supply the numeric figure in nM, leaving out any unit text.

What value of measured IC50 is listed for `CC(/C=C1\SC(=S)N(CC(=O)O)C1=O)=C\c1ccccc1` ?
21
